Each record here notes measured solubility at 2 h.
# experimental.protocol: Solubility of peptide compounds in buffer formulations (Table 5)
# Format: physicochemical
# details: aqueous buffer; 50 mM phosphate buffer pH 6.5, 2 h agitation, target 1 mg/ml; read-out: Solubility, Buffer pH 6.5
# Procedure: Prior to the solubility measurement of a peptide batch, its purity was determined through UHPLC/MS method A. For solubility testing the target concentration was 1 mg pure compound/ml. […] The solubility was determined by the comparison of the UV peak area of 2 μL-injections of a buffered sample diluted 1:10 with a standard curve of a dimethyl sulfoxide reference sample of known concentration. […]
Numbered stars: 1 amine (or outer) side, 2 acyl side, 3 side chain; on linkers, the order of the positions; unused ones are H or OH. Bridge positions count the residues as written; N and C are the ends. Square brackets hold non-standard residues; d marks the D form. Peptide text beside a SMILES is read from it. * marks the point of attachment. Trp(7-Me) = Cc1cccc2c(C[C@H](N)C(=O)O)c[nH]c12; Sebacoyl = O=C(CCCCCCCCC(=O)[*:2])[*:1]; 2Nal = N[C@@H](Cc1ccc2ccccc2c1)C(=O)O; d2Nal = N[C@H](Cc1ccc2ccccc2c1)C(=O)O; C12 diacid = O=C(O)CCCCCCCCCCC(=O)*; 3Pal = N[C@@H](Cc1cccnc1)C(=O)O; Aun = NCCCCCCCCCCC(=O)O; Thp = NC1(C(=O)O)CCOCC1; Me2NCH2CH2 = CN(C)CC*; Aib = CC(C)(N)C(=O)O; Aoc = NCCCCCCCC(=O)O; Sar = CNCC(=O)O
Give the quantity in µg/mL, number only.

Please review the following examples before continuing.
compound	solubility at 2 h, µg/mL
Cc1cccc2c(C[C@@H]3NC(=O)CCCCCCCCCCC(=O)NCCCC[C@@H](C(=O)N[C@@H](CC(N)=O)C(=O)N[C@@H](Cc4cccnc4)C(=O)N(C)CC(N)=O)NC(=O)C(C)(C)NC(=O)[C@H](Cc4ccc5ccccc5c4)NC(=O)[C@H](Cc4ccc(OCCN(C)C)cc4)NC(=O)C4(CCOCC4)NC(=O)[C@H](CCC(N)=O)NC3=O)c[nH]c12 [compound 10] ([Trp(7-Me)]Q[Thp]Y(Me2NCH2CH2)[2Nal][Aib]KN[3Pal][Sar]-NH2; linker N-7 via C12 diacid)	240
Cc1cccc2c(C[C@@H]3NC(=O)CCCCCCCCC(=O)NCCCC[C@@H](C(=O)N[C@@H](CC(N)=O)C(=O)N[C@@H](Cc4cccnc4)C(=O)N(C)CC(N)=O)NC(=O)C(C)(C)NC(=O)[C@H](Cc4ccc5ccccc5c4)NC(=O)[C@H](Cc4ccc(OCCN(C)C)cc4)NC(=O)C4(CCOCC4)NC(=O)[C@H](CCC(N)=O)NC3=O)c[nH]c12 [compound 11] ([Trp(7-Me)]Q[Thp]Y(Me2NCH2CH2)[2Nal][Aib]KN[3Pal][Sar]-NH2; linker N-7 via Sebacoyl)	330

Query: Respond only with solubility at 2 h recorded for Cc1cccc2c(C[C@@H]3NC(=O)CCCCCCCNC(=O)CC[C@@H](C(=O)N[C@@H](CC(N)=O)C(=O)N[C@@H](Cc4cccnc4)C(=O)N(C)CC(N)=O)NC(=O)C(C)(C)NC(=O)[C@H](Cc4ccc5ccccc5c4)NC(=O)[C@H](Cc4ccc(OCCN(C)C)cc4)NC(=O)C4(CCOCC4)NC(=O)[C@H](CC(C)C)NC3=O)c[nH]c12 [compound 9] ([Aoc][Trp(7-Me)]L[Thp]Y(Me2NCH2CH2)[2Nal][Aib]EN[3Pal][Sar]-NH2; lactam N-8)
Result: 260

Query: Respond only with solubility at 2 h recorded for Cc1cccc2c(C[C@@H]3NC(=O)CCCCCCCCCCNC(=O)CC[C@@H](C(=O)N[C@@H](CC(N)=O)C(=O)N[C@@H](Cc4cccnc4)C(=O)N(C)CC(N)=O)NC(=O)C(C)(C)NC(=O)[C@@H](Cc4ccc5ccccc5c4)NC(=O)[C@H](Cc4ccc(OCCN(C)C)cc4)NC(=O)C4(CCOCC4)NC(=O)[C@H](CCC(N)=O)NC3=O)c[nH]c12 [compound 4] ([Aun][Trp(7-Me)]Q[Thp]Y(Me2NCH2CH2)[d2Nal][Aib]EN[3Pal][Sar]-NH2; lactam N-8)
Result: 270

----------
# experimental.protocol: Protease stability in simulated intestinal fluids (FaSSIF) (Table 7)
# Assay type: in vitro ADME
# details: fassif with pancreatin, 120 min, 37° C., read-out: Remaining percentage of peptide compound, FaSSIF 120 (min)
Numbered stars: 1 amine (or outer) side, 2 acyl side, 3 side chain; on linkers, the order of the positions; unused ones are H or OH. Bridge positions count the residues as written; N and C are the ends. Square brackets hold non-standard residues; d marks the D form. Peptide text beside a SMILES is read from it. * marks the point of attachment. Lys(Me,(CH2)4NMe(CH2)4CO) = CN(CCCCC(=O)[*:3])CCCCN(C)CCCC[C@H](N[*:1])C(=O)[*:2]; X2 = O=C(Cc1ccc(-c2ccc(CC(=O)[*:2])cc2)cc1)[*:1]; Trp(7-Me) = Cc1cccc2c(C[C@H](N)C(=O)O)c[nH]c12; αMeLys(Me2) = CN(C)CCCC[C@](C)(N)C(=O)O; 2Nal = N[C@@H](Cc1ccc2ccccc2c1)C(=O)O; C12 diacid = O=C(O)CCCCCCCCCCC(=O)*; 3Pal = N[C@@H](Cc1cccnc1)C(=O)O; Thp = NC1(C(=O)O)CCOCC1; Me2NCH2CH2 = CN(C)CC*; Aib = CC(C)(N)C(=O)O; Aoc = NCCCCCCCC(=O)O; Sar = CNCC(=O)O
readout.name: remaining at 2 h, 1 µM (%)
Give the quantity in %, number only.

Please review the following examples before continuing.
compound	measurement.unit	remaining at 2 h, 1 µM
Cc1cccc2c(C[C@@H]3NC(=O)CCCCCCCCCCC(=O)NCCCC[C@@H](C(=O)N[C@@H](CC(N)=O)C(=O)N[C@@H](Cc4cccnc4)C(=O)N(C)CC(N)=O)NC(=O)C(C)(C)NC(=O)[C@H](Cc4ccc5ccccc5c4)NC(=O)[C@H](Cc4ccc(OCCN(C)C)cc4)NC(=O)C4(CCOCC4)NC(=O)[C@H](CCC(N)=O)NC3=O)c[nH]c12 [compound 10] ([Trp(7-Me)]Q[Thp]Y(Me2NCH2CH2)[2Nal][Aib]KN[3Pal][Sar]-NH2; linker N-7 via C12 diacid)	%	78
CC(=O)NCCCC[C@@H]1NC(=O)[C@H](Cc2c[nH]c3c(C)cccc23)NC(=O)CCCCN(C)CCCCN(C)CCCC[C@@H](C(=O)N[C@@H](CC(N)=O)C(=O)N[C@@H](Cc2cccnc2)C(=O)N(C)CC(N)=O)NC(=O)[C@](C)(CCCCN(C)C)NC(=O)[C@H](Cc2ccc3ccccc3c2)NC(=O)[C@H](Cc2ccc(OCCN(C)C)cc2)NC(=O)C2(CCOCC2)NC1=O [compound 47] ([Trp(7-Me)]K(Ac)[Thp]Y(Me2NCH2CH2)[2Nal][αMeLys(Me2)][Lys(Me,(CH2)4NMe(CH2)4CO)]N[3Pal][Sar]-NH2; lactam N-7)	%	91
CC(=O)NCCCC[C@@H]1NC(=O)[C@H](Cc2c[nH]c3c(C)cccc23)NC(=O)CCCCN(C)CCCCN(C)CCCC[C@@H](C(=O)N[C@@H](CC(N)=O)C(=O)N[C@@H](Cc2cccnc2)C(=O)N(C)CC(N)=O)NC(=O)C(C)(C)NC(=O)[C@H](Cc2ccc3ccccc3c2)NC(=O)[C@H](Cc2ccc(OCCN(C)C)cc2)NC(=O)C2(CCOCC2)NC1=O [compound 32] ([Trp(7-Me)]K(Ac)[Thp]Y(Me2NCH2CH2)[2Nal][Aib][Lys(Me,(CH2)4NMe(CH2)4CO)]N[3Pal][Sar]-NH2; lactam N-7)	%	93
Cc1cccc2c(C[C@@H]3NC(=O)Cc4ccc(cc4)-c4ccc(cc4)CC(=O)NCCCC[C@@H](C(=O)N[C@@H](CC(N)=O)C(=O)N[C@@H](Cc4cccnc4)C(=O)N(C)CC(N)=O)NC(=O)C(C)(C)NC(=O)[C@H](Cc4ccc5ccccc5c4)NC(=O)[C@H](Cc4ccc(OCCN(C)C)cc4)NC(=O)C4(CCOCC4)NC(=O)[C@H](CCC(N)=O)NC3=O)c[nH]c12 [compound 15] ([Trp(7-Me)]Q[Thp]Y(Me2NCH2CH2)[2Nal][Aib]KN[3Pal][Sar]-NH2; linker N-7 via X2)	%	63

Field: next compound
Query: Respond only with remaining at 2 h, 1 µM recorded for Cc1cccc2c(C[C@@H]3NC(=O)CCCCCCCNC(=O)CC[C@@H](C(=O)N[C@@H](CC(N)=O)C(=O)N[C@@H](Cc4cccnc4)C(=O)N(C)CC(N)=O)NC(=O)C(C)(C)NC(=O)[C@H](Cc4ccc5ccccc5c4)NC(=O)[C@H](Cc4ccc(OCCN(C)C)cc4)NC(=O)C4(CCOCC4)NC(=O)[C@H](CC(C)C)NC3=O)c[nH]c12 [compound 9] ([Aoc][Trp(7-Me)]L[Thp]Y(Me2NCH2CH2)[2Nal][Aib]EN[3Pal][Sar]-NH2; lactam N-8)
Result: 76
